Assay: Cytotoxicity against african green monkey Vero cells after 72 hrs by MTT assat
Conditions: chlorocebus sabaeus, Vero cells

>  <smiles structure>
CO/N=C1\C(=O)N(CN2CCN(c3c(F)cc4c(=O)c(C(=O)O)cn(C5CC5)c4c3OC)CC2)c2ccccc21

>  <value unit>
µM

>  <CC50 at 72 h>
76.5

$$$$
>  <smiles structure>
COc1c(N2CCN(CCN3C(=O)/C(=N\NC(N)=S)c4cc(F)ccc43)CC2)c(F)cc2c(=O)c(C(=O)O)cn(C3CC3)c12

>  <value unit>
µM

>  <CC50 at 72 h>
57

$$$$
>  <smiles structure>
COc1c(N2CCN(CN3C(=O)C(=O)c4ccccc43)CC2)c(F)cc2c(=O)c(C(=O)O)cn(C3CC3)c12

>  <value unit>
µM

>  <CC50 at 72 h>
70.8

$$$$
>  <smiles structure>
COc1c(N2CCN(CN3C(=O)/C(=N\NC(N)=S)c4ccccc43)CC2)c(F)cc2c(=O)c(C(=O)O)cn(C3CC3)c12

>  <value unit>
µM

>  <CC50 at 72 h>
154

$$$$
>  <smiles structure>
CO/N=C1\C(=O)N(CCN2CCN(c3c(F)cc4c(=O)c(C(=O)O)cn(C5CC5)c4c3OC)CC2)c2ccccc21

>  <value unit>
µM

>  <CC50 at 72 h>
306

$$$$
>  <smiles structure>
CO/N=C1\C(=O)N(CN2CCN(c3c(F)cc4c(=O)c(C(=O)O)cn(C5CC5)c4c3OC)CC2)c2ccc(F)cc21

>  <value unit>
µM

>  <CC50 at 72 h>
46.8

$$$$
>  <smiles structure>
COc1c(N2CCN(CN3C(=O)/C(=N\NC(N)=O)c4ccccc43)CC2)c(F)cc2c(=O)c(C(=O)O)cn(C3CC3)c12

>  <value unit>
µM

>  <CC50 at 72 h>
266

$$$$

====

Assay: Cytotoxicity against african green monkey Vero cells after 72 hrs by MTT assat
Details: chlorocebus sabaeus, Vero cells
measurement kind: CC50 at 72 h (µM)

>  <smiles structure>
CO/N=C1\C(=O)N(CCN2CCN(c3c(F)cc4c(=O)c(C(=O)O)cn(C5CC5)c4c3OC)CC2)c2ccc(F)cc21

>  <value unit>
µM

>  <val>
12.8

$$$$
>  <smiles structure>
COc1c(N2CCNCC2)c(F)cc2c(=O)c(C(=O)O)cn(C3CC3)c12

>  <value unit>
µM

>  <val>
242

$$$$
>  <smiles structure>
CO[C@H]1/C=C/O[C@@]2(C)Oc3c(C)c(O)c4c(O)c(c(/C=N/N5CCN(C)CC5)c(O)c4c3C2=O)NC(=O)/C(C)=C\C=C\[C@H](C)[C@H](O)[C@@H](C)[C@@H](O)[C@@H](C)[C@H](OC(C)=O)[C@@H]1C

>  <value unit>
µM

>  <val>
180

$$$$

====

Assay: Cytotoxicity against african green monkey Vero cells after 72 hrs by MTT assat
Conditions: chlorocebus sabaeus, vero
measurement kind: CC50 at 72 h

>  <smiles structure>
O=C(O)c1cn(C2CC2)c2cc(N3CCNCC3)c(F)cc2c1=O

>  <measurement kind>
CC50 at 72 h

>  <val>
601 µM

$$$$

====

Measured MIC accompanies every entry in the list below.
Tested on: Mycobacterium tuberculosis
Assay: microbe, parasite or virus in culture
Format: functional
Conditions: H37Rv ATCC 27294, 168 h
Description: Antimycobacterial activity against Mycobacterium tuberculosis H37Rv ATCC 27294 after 7 days by serial double dilution technique

>  <smiles structure>
COc1c(N2CCN(CN3C(=O)/C(=N\NC(N)=S)c4ccccc43)CC2)c(F)cc2c(=O)c(C(=O)O)cn(C3CC3)c12

>  <target of assay>
Mycobacterium tuberculosis

>  <MIC, µM>
0.13

$$$$
>  <smiles structure>
CO/N=C1\C(=O)N(CN2CCN(c3c(F)cc4c(=O)c(C(=O)O)cn(C5CC5)c4c3OC)CC2)c2ccccc21

>  <target of assay>
Mycobacterium tuberculosis

>  <MIC, µM>
0.15

$$$$
>  <smiles structure>
COc1c(N2CCN(CN3C(=O)/C(=N\O)c4cc(F)ccc43)CC2)c(F)cc2c(=O)c(C(=O)O)cn(C3CC3)c12

>  <target of assay>
Mycobacterium tuberculosis

>  <MIC, µM>
0.14

$$$$
>  <smiles structure>
COc1c(N2CCN(CCN3C(=O)/C(=N\NC(N)=S)c4cc(F)ccc43)CC2)c(F)cc2c(=O)c(C(=O)O)cn(C3CC3)c12

>  <target of assay>
Mycobacterium tuberculosis

>  <MIC, µM>
1.02

$$$$
